Target: hA3AR (Homo sapiens (Human))
Sequence (P0DMS8 whole entry): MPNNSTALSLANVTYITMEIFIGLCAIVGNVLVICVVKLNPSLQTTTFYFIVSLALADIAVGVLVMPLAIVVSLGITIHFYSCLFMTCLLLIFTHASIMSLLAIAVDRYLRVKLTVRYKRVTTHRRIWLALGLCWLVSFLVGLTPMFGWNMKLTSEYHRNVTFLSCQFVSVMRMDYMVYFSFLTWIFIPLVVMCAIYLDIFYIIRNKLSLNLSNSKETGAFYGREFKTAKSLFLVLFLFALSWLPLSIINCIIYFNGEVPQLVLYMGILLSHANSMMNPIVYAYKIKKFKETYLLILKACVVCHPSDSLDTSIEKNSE
Experiment: Radioligand membrane binding assay at hA3AR ([125I]I-AB-MECA)
Conditions: Table 1; CHO cells expressing hA3AR; [125I]I-AB-MECA; read-out: A3 Ki
Measured Endpoint: Ki (µM)

Some entries whose results are on file:
INSERT INTO assay_data (record_smiles, measured_endpoint, result) VALUES
  ('C#CCCCC(=O)Nc1nc2ccc(Cl)cc2c2nc(-c3ccco3)nn12', 'Ki', 0.0335),
  ('Cn1cc2c(nc(NCCOOCCCCNC(=S)Nc3ccc(-c4c5ccc(=O)cc-5oc5cc(O)ccc45)c(C(=O)O)c3)n3nc(-c4ccco4)nc23)n1', 'Ki', 9.39);

A = Cn1cc2c(nc(NCCCNC(=S)Nc3ccc(-c4c5ccc(=O)cc-5oc5cc(O)ccc45)c(C(=O)O)c3)n3nc(-c4ccco4)nc23)n1
B = Cn1cc2c(nc(NCCCCCNC(=S)Nc3ccc(-c4c5ccc(=O)cc-5oc5cc(O)ccc45)c(C(=O)O)c3)n3nc(-c4ccco4)nc23)n1
Which record would sort first by descending Ki, A or B ? Selection: enter the item's label.
B
